Listing: remaining activity at 1 µM of selected compounds
SYSTEM UNDER TEST: EGFR (Homo sapiens (Human))
PROTOCOL TEXT: HTRF KinEASE-TK kinase assay, EGFR
Assay type: biochemical
CONDITIONS USED: 1 μM compound, 3 h preincubation; read-out: % EGFR Remaining activity vs DMSO (1 μM, 3 h)

COMPOUND: COCCOc1ccc(Nc2ncc(F)c(Nc3cccc(NS(=O)(=O)c4c(F)c(F)c(F)c(F)c4CF)c3)n2)cc1
remaining activity at 1 µM: > 90%

COMPOUND: COCCOc1ccc(Nc2ncc(F)c(Nc3cccc(NC(=O)c4c(F)c(F)c(F)c(F)c4S(=O)(=O)N(C)C)c3)n2)cc1
remaining activity at 1 µM: > 90%

COMPOUND: CN(CCn1nc(-c2ccc(Oc3ccccc3)cc2)c2c(N)ncnc21)c1c(F)c(F)c(F)c(F)c1S(C)(=O)=O
remaining activity at 1 µM: > 90%

COMPOUND: COCCOc1ccc(Nc2ncc(F)c(NCCCNS(=O)(=O)c3c(F)c(F)c(F)c(F)c3C(F)F)n2)cc1
remaining activity at 1 µM: > 90%

COMPOUND: CS(=O)(=O)c1c(F)c(F)c(F)c(F)c1C(=O)N1CC(n2nc(-c3ccc(Oc4ccccc4)cc3)c3c(N)ncnc32)C1
remaining activity at 1 µM: < 50%

COMPOUND: COCCOc1ccc(Nc2ncc(F)c(NCCCNS(=O)(=O)c3c(F)c(F)c(F)c(F)c3OC(F)F)n2)cc1
remaining activity at 1 µM: > 90%

COMPOUND: C[S+]([O-])c1c(F)c(F)c(F)c(F)c1C(=O)N1CCC[C@@H](n2nc(-c3ccc(Oc4ccccc4)cc3)c3c(N)ncnc32)C1 (stereo partly shown)
remaining activity at 1 µM: > 90%

COMPOUND: CN(C)S(=O)(=O)c1c(F)c(F)c(F)c(F)c1C(=O)NCCNc1ncnc2[nH]ccc12
remaining activity at 1 µM: > 90%

COMPOUND: C[S@+]([O-])c1c(F)c(F)c(F)c(F)c1C(=O)N1CC(n2nc(-c3ccc(Oc4ccccc4)cc3)c3c(N)ncnc32)C1 (racemic)
remaining activity at 1 µM: < 50%

COMPOUND: COCCOc1ccc(Nc2ncc(F)c(Nc3cccc(Nc4c(F)c(F)c(F)c(F)c4S(C)(=O)=O)c3)n2)cc1
remaining activity at 1 µM: > 90%

COMPOUND: COCCOc1ccc(Nc2ncc(F)c(NCCCNS(=O)(=O)c3c(F)c(F)c(F)c(F)c3CF)n2)cc1
remaining activity at 1 µM: > 90%

COMPOUND: COCCOc1ccc(Nc2ncc(F)c(Nc3cccc(NS(=O)(=O)c4c(F)c(F)c(F)c(F)c4OC(F)F)c3)n2)cc1
remaining activity at 1 µM: > 90%

COMPOUND: CS(=O)(=O)c1c(F)c(F)c(F)c(F)c1CNCCNc1ncnc2[nH]ccc12
remaining activity at 1 µM: > 90%

COMPOUND: Nc1ncnc2c1c(-c1ccc(Oc3ccccc3)cc1)nn2CCNS(=O)(=O)c1c(F)c(F)c(F)c(F)c1OCF
remaining activity at 1 µM: > 90%

COMPOUND: CN(C)S(=O)(=O)c1c(F)c(F)c(F)c(F)c1C(=O)N1CC(n2nc(-c3ccc(Oc4ccccc4)cc3)c3c(N)ncnc32)C1
remaining activity at 1 µM: < 50%

COMPOUND: C[S+]([O-])c1c(F)c(F)c(F)c(F)c1C(=O)Nc1cc2c(Nc3ccc(F)c(Cl)c3)ncnc2cc1OC1CCOC1 (stereo not shown)
remaining activity at 1 µM: < 50%

###

SYSTEM UNDER TEST: EGFR (Homo sapiens (Human), UniProt P00533)
Sequence (P00533 25-1210): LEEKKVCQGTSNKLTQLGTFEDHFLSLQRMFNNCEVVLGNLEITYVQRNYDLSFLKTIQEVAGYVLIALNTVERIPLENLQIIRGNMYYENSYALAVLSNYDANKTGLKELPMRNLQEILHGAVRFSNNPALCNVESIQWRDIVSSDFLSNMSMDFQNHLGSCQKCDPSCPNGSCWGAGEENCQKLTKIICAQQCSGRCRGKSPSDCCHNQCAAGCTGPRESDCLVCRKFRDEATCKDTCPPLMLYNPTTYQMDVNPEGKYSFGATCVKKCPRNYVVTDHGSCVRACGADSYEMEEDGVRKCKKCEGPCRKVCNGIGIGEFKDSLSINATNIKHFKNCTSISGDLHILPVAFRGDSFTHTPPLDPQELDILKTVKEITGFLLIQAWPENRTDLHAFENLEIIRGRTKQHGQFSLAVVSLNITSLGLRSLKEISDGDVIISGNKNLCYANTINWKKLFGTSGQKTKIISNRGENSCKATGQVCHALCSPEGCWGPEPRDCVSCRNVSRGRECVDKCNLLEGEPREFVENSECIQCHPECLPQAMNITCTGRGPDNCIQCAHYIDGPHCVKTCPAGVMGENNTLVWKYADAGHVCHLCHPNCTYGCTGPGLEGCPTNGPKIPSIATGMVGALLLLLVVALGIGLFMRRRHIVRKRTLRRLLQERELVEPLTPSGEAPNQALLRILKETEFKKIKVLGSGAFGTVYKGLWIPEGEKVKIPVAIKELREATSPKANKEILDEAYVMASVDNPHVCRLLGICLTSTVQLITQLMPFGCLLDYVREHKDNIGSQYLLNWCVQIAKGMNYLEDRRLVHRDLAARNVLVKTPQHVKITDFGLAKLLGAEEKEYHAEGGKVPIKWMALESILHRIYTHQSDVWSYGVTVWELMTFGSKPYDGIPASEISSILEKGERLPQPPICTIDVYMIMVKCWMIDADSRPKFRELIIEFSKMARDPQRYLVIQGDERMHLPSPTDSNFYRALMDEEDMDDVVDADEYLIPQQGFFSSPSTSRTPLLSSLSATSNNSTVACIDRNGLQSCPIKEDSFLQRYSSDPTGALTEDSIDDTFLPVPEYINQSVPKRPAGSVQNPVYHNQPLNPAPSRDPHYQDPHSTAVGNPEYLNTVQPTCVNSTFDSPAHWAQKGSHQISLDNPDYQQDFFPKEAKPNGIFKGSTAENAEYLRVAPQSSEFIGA
PROTOCOL TEXT: HTRF KinEASE-TK kinase assay, EGFR
Type: biochemical
CONDITIONS USED: 1 μM compound, 3 h preincubation; read-out: % EGFR Remaining activity vs DMSO (1 μM, 3 h)

COMPOUND: COCCOc1ccc(Nc2ncc(F)c(Nc3cccc(Nc4c(F)c(F)c(F)c(F)c4[S@+](C)[O-])c3)n2)cc1 (stereo in doubt) [Compound I-63]
remaining activity at 1 µM: > 90%

COMPOUND: Nc1ncnc2c1c(-c1ccc(Oc3ccccc3)cc1)nn2CCNC(=O)c1c(F)c(F)c(F)c(F)c1S(N)(=O)=O [Compound I-42]
remaining activity at 1 µM: 50 to 90%

COMPOUND: Nc1ncnc2c1c(-c1ccc(Oc3ccccc3)cc1)nn2[C@@H]1CCN(S(=O)(=O)c2c(F)c(F)c(F)c(F)c2OCF)C1 [Compound I-24]
remaining activity at 1 µM: > 90%

###

Listing: remaining activity at 10 µM of selected compounds
SYSTEM UNDER TEST: RIPK2 (Homo sapiens (Human))
Sequence (O43353 whole entry, species assumed): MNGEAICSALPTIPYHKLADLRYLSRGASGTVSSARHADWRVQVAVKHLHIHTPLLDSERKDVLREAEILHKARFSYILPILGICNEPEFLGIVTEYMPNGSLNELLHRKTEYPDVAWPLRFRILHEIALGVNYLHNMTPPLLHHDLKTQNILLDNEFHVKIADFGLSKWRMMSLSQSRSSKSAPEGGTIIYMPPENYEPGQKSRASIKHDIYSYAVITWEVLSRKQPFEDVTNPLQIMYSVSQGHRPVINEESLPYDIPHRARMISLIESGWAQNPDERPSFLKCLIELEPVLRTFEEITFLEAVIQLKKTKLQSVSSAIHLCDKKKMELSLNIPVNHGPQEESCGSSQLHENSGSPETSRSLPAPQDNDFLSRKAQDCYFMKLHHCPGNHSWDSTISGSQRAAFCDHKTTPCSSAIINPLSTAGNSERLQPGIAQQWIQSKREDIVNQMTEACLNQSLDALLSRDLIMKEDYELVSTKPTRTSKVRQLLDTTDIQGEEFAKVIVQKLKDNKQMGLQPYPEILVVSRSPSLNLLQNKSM
PROTOCOL TEXT: In vitro RIPK2 inhibition
Assay type: biochemical
CONDITIONS USED: read-out: % RIPK2 Remaining activity vs DMSO (10 μM, 3 h)

COMPOUND: CS(=O)(=O)c1c(F)c(F)c(F)c(F)c1C(=O)NCCn1nc(-c2ccc(Oc3ccccc3)cc2)c2c(N)ncnc21
remaining activity at 10 µM: > 90%
//
COMPOUND: CS(=O)(=O)c1c(F)c(F)c(F)c(F)c1C(=O)NCCCn1nc(-c2ccc(Oc3ccccc3)cc2)c2c(N)ncnc21
remaining activity at 10 µM: > 90%
//
COMPOUND: C[S@+]([O-])c1c(F)c(F)c(F)c(F)c1C(=O)N1CC(n2nc(-c3ccc(Oc4ccccc4)cc3)c3c(N)ncnc32)C1 (racemic)
remaining activity at 10 µM: > 90%
//
COMPOUND: CN(C)S(=O)(=O)c1c(F)c(F)c(F)c(F)c1C(=O)NCCCn1nc(-c2ccc(Oc3ccccc3)cc2)c2c(N)ncnc21
remaining activity at 10 µM: > 90%
//
COMPOUND: C[S+]([O-])c1c(F)c(F)c(F)c(F)c1C(=O)N1CCC[C@@H](n2nc(-c3ccc(Oc4ccccc4)cc3)c3c(N)ncnc32)C1 (stereo partly drawn)
remaining activity at 10 µM: > 90%
//
COMPOUND: CN(CCn1nc(-c2ccc(Oc3ccccc3)cc2)c2c(N)ncnc21)C(=O)c1c(F)c(F)c(F)c(F)c1S(C)(=O)=O
remaining activity at 10 µM: > 90%
//
COMPOUND: CS(=O)(=O)c1c(F)c(F)c(F)c(F)c1C(=O)NCCNc1ncnc2[nH]ccc12
remaining activity at 10 µM: 50 to 90%
//
COMPOUND: COCCOc1ccc(Nc2ncc(F)c(Nc3cccc(NC(=O)c4c(F)c(F)c(F)c(F)c4S(=O)(=O)N(C)C)c3)n2)cc1
remaining activity at 10 µM: < 50%
//
COMPOUND: CN(CCn1nc(-c2ccc(Oc3ccccc3)cc2)c2c(N)ncnc21)C(=O)c1c(F)c(F)c(F)c(F)c1S(=O)(=O)N(C)C
remaining activity at 10 µM: > 90%
//
COMPOUND: C[S@+]([O-])c1c(F)c(F)c(F)c(F)c1C(=O)Nc1ncnc2[nH]ccc12 (racemic)
remaining activity at 10 µM: 50 to 90%
//
COMPOUND: Nc1ncnc2c1c(-c1ccc(Oc3ccccc3)cc1)nn2CCCNC(=O)c1c(F)c(F)c(F)c(F)c1S(N)(=O)=O
remaining activity at 10 µM: > 90%
//
COMPOUND: CN(C)S(=O)(=O)c1c(F)c(F)c(F)c(F)c1C(=O)NCCNc1ncnc2[nH]ccc12
remaining activity at 10 µM: < 50%
//
COMPOUND: CN(CCn1nc(-c2ccc(Oc3ccccc3)cc2)c2c(N)ncnc21)C(=O)c1c(F)c(F)c(F)c(F)c1S(N)(=O)=O
remaining activity at 10 µM: > 90%
//
COMPOUND: NS(=O)(=O)c1c(F)c(F)c(F)c(F)c1C(=O)NCCNc1ncnc2[nH]ccc12
remaining activity at 10 µM: < 50%
//
COMPOUND: Nc1ncnc2c1c(-c1ccc(Oc3ccccc3)cc1)nn2[C@@H]1CCCN(C(=O)c2c(F)c(F)c(F)c(F)c2S(N)(=O)=O)C1
remaining activity at 10 µM: > 90%
//
COMPOUND: CS(=O)(=O)c1c(F)c(F)c(F)c(F)c1C(=O)N1CC(n2nc(-c3ccc(Oc4ccccc4)cc3)c3c(N)ncnc32)C1
remaining activity at 10 µM: > 90%
//
COMPOUND: CN(C)S(=O)(=O)c1c(F)c(F)c(F)c(F)c1C(=O)N1CC(n2nc(-c3ccc(Oc4ccccc4)cc3)c3c(N)ncnc32)C1
remaining activity at 10 µM: 50 to 90%
//
COMPOUND: CN(C)S(=O)(=O)c1c(F)c(F)c(F)c(F)c1C(=O)N1CCC[C@@H](n2nc(-c3ccc(Oc4ccccc4)cc3)c3c(N)ncnc32)C1
remaining activity at 10 µM: > 90%

###

SYSTEM UNDER TEST: EGFR (Homo sapiens (Human), UniProt P00533)
PROTOCOL TEXT: HTRF KinEASE-TK kinase assay, EGFR
Assay type: biochemical
CONDITIONS USED: 10 μM compound, 3 h preincubation; read-out: % EGFR Remaining activity vs DMSO (10 μM, 3 h)
MEASURED QUANTITY: remaining activity at 10 µM

COMPOUND: CS(=O)(=O)c1c(F)c(F)c(F)c(F)c1CNCCNc1ncnc2[nH]ccc12 [Compound I-50]
SYSTEM UNDER TEST: EGFR (Homo sapiens (Human), UniProt P00533)
RESULT: 50 to 90%
//
COMPOUND: CS(=O)(=O)c1c(F)c(F)c(F)c(F)c1C(=O)Nc1cc2c(Nc3ccc(F)c(Cl)c3)ncnc2cc1O[C@H]1CCOC1 [Compound I-5]
SYSTEM UNDER TEST: EGFR (Homo sapiens (Human), UniProt P00533)
RESULT: < 50%
//
COMPOUND: COCCOc1ccc(Nc2ncc(F)c(Nc3cccc(Nc4c(F)c(F)c(F)c(F)c4S(C)(=O)=O)c3)n2)cc1 [Compound I-64]
SYSTEM UNDER TEST: EGFR (Homo sapiens (Human), UniProt P00533)
RESULT: > 90%
//
COMPOUND: COCCOc1ccc(Nc2ncc(F)c(Nc3cccc(NC(=O)c4c(F)c(F)c(F)c(F)c4S(C)(=O)=O)c3)n2)cc1 [Compound I-61]
SYSTEM UNDER TEST: EGFR (Homo sapiens (Human), UniProt P00533)
RESULT: < 50%
//
COMPOUND: CS(=O)(=O)c1c(F)c(F)c(F)c(F)c1C(=O)NCCCn1nc(-c2ccc(Oc3ccccc3)cc2)c2c(N)ncnc21 [Compound I-39]
SYSTEM UNDER TEST: EGFR (Homo sapiens (Human), UniProt P00533)
RESULT: < 50%
//
COMPOUND: Nc1ncnc2c1c(-c1ccc(Oc3ccccc3)cc1)nn2CCNS(=O)(=O)c1c(F)c(F)c(F)c(F)c1OCF [Compound I-25]
SYSTEM UNDER TEST: EGFR (Homo sapiens (Human), UniProt P00533)
RESULT: > 90%
//
COMPOUND: COCCOc1ccc(Nc2ncc(F)c(Nc3cccc(NC(=O)c4c(F)c(F)c(F)c(F)c4[S@+](C)[O-])c3)n2)cc1 (stereo in doubt) [Compound I-62]
SYSTEM UNDER TEST: EGFR (Homo sapiens (Human), UniProt P00533)
RESULT: 50 to 90%
//
COMPOUND: CS(=O)(=O)c1c(F)c(F)c(F)c(F)c1C(=O)N1CC(n2nc(-c3ccc(Oc4ccccc4)cc3)c3c(N)ncnc32)C1 [Compound I-27]
SYSTEM UNDER TEST: EGFR (Homo sapiens (Human), UniProt P00533)
RESULT: < 50%
//
COMPOUND: COCCOc1ccc(Nc2ncc(F)c(Nc3cccc(NS(=O)(=O)c4c(F)c(F)c(F)c(F)c4C(F)(F)F)c3)n2)cc1 [Compound I-53]
SYSTEM UNDER TEST: EGFR (Homo sapiens (Human), UniProt P00533)
RESULT: < 50%
//
COMPOUND: CN(C)S(=O)(=O)c1c(F)c(F)c(F)c(F)c1C(=O)NCCNc1ncnc2[nH]ccc12 [Compound I-47]
SYSTEM UNDER TEST: EGFR (Homo sapiens (Human), UniProt P00533)
RESULT: > 90%
//
COMPOUND: CN(C)S(=O)(=O)c1c(F)c(F)c(F)c(F)c1C(=O)N1CCC[C@@H](n2nc(-c3ccc(Oc4ccccc4)cc3)c3c(N)ncnc32)C1 [Compound I-31]
SYSTEM UNDER TEST: EGFR (Homo sapiens (Human), UniProt P00533)
RESULT: > 90%

Value source: patent US20240018153A1
